target: endogenous human tissue factor on MDA-MB-231 breast cancer cells (human, UniProt P13726 33-295); test: cell-based or functional assay; note: test concentration or dose not given here
Readings of % IL-8 Inhibition for the listed binders
Please state the number and follow it with the unit.

Worked examples, 4 binders total:
{"columns": ["binder", "value"],
 "data": [
  ["M68 (antibody, V domains shown, complete MAb; FR4 is its own entry; also called H23/L5) VH: QVQLVQSGAEVKKPGSSVKVSCKASGYTFITYWIEWVRQAPGQGLEWMGDILPGSGSTNYAQKFQGRVTITADESTSTAYMELSSLRSEDTAVYYCARSGYYGNSGFAYWGQGTLVTVSS VL: DIVMTQTPLSLSVTPGQPASISCKSSQSLLSSGNQKNYLTWYLQKPGQPPQLLIYWASTRESGVPDRFSGSGSGTDFTLKISRVEAEDVGVYYCQNDYTYPLTFGQGTKLEIK", "89.8%"],
  ["M37 (antibody, V domains shown, complete MAb; FR4 is its own entry; also called H19/L2) VH: QVQLVQSGAEVKKPGSSVKVSCKASGYTFITYWIEWVRQAPGQGLEWMGDILPGSGSTNYNENFKGRVTITADESTSTAYMELSSLRSEDTAVYYCARSGYYGNSGFAYWGQGTLVTVSS VL: DIVMTQSPDSLAVSLGERATINCKSSQSLLSSGNQKNYLTWYQQKPGQPPKLLIYWASTRESGVPDRFSGSGSGTDFTLTISSLQAEDVAVYYCQNDYTYPLTFGQGTKLEIK", "71.2%"],
  ["M46 (antibody, V domains shown, complete MAb; FR4 is its own entry; also called H20/L4) VH: QVQLVQSGAEVKKPGASVKVSCKASGYTFITYWIEWVRQAPGQGLEWMGDILPGSGSTNYNENFKGRVTMTTDTSTSTAYMELRSLRSDDTAVYYCARSGYYGNSGFAYWGQGTLVTVSS VL: DIVMTQSPLSLPVTPGEPASISCKSSQSLLSSGNQKNYLTWYLQKPGQSPQLLIYWASTRESGVPDRFSGSGSGTDFTLKISRVEAEDVGVYYCQNDYTYPLTFGQGTKLEIK", "82.5%"],
  ["M19 (antibody, V domains shown, complete MAb; FR4 is its own entry; also called H16/L5) VH: QVQLVQSGAEVKKPGASVKVSCKASGYTFITYWIEWVRQAPGQGLEWMGDILPGSGSTNYNENFKGRVTMTRDTSTSTVYMELSSLRSEDTAVYYCARSGYYGNSGFAYWGQGTLVTVSS VL: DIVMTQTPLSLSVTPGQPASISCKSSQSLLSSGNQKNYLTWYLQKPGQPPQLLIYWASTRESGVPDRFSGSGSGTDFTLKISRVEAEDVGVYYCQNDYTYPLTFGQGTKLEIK", "87.3%"]
]}

Inquiry: For the binder shown here, M16 (antibody, V domains shown, complete MAb; FR4 is its own entry; also called H16/L2) VH: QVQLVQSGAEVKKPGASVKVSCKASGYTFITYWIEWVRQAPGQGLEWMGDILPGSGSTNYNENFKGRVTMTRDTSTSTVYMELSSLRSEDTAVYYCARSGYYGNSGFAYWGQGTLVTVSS VL: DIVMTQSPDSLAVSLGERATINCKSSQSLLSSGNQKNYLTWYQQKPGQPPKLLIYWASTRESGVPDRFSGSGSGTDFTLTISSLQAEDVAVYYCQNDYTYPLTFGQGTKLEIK , give the reported % IL-8 Inhibition.
Reply text: 98.3%

Inquiry: Reported % IL-8 Inhibition for M61 (antibody, V domains shown, complete MAb; FR4 is its own entry; also called H22/L5) VH: EVQLVQSGAEVKKPGESLRISCKGSGYTFITYWIEWVRQMPGKGLEWMGDILPGSGSTNYSPSFQGHVTISADKSISTAYLQWSSLKASDTAMYYCARSGYYGNSGFAYWGQGTLVTVSS VL: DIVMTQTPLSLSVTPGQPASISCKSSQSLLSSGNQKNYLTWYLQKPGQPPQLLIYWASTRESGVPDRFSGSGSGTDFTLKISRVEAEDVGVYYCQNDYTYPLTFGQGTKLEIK : what is it?
Reply text: 107%
